Entry source: paper PMC6272887

System: MCF-7 (human breast cancer)
Assay: Cell proliferative assay (MTT), MCF-7
Assay type: cell-based
Conditions: Homo sapiens, MCF7, MTT assay, MCF-7 cells; read-out: Proliferative Inhibition (IC50, µM) MCF-7
Method: The anti-proliferative activities of synthesized compounds against HeLa, Hep-G2 and MCF-7 cells were evaluated by MTT assay. HeLa cells were grown to log phase in RPMI 1640 medium supplemented with 10% fetal bovine serum. Hep-G2 and MCF-7 cells were grown to log phase in DMEM medium supplemented with 10% fetal bovine serum. […] Four h later, 100 µL extraction solution (DMSO) was added to each well and the optical density was measured at a wavelength of 570 nm on an ELISA microplate reader.
METRIC: IC50 (µM)
Answers are plain numbers, in µM.

Consider the reported IC50 for these molecules:
- MOLECULE: "CC(C)(C)OC(=O)N1CCc2c(sc3ncnc(Oc4cccc(C(=O)Nc5ccc(F)cc5)c4)c23)C1 [Compound 11i]"
  RESULT_UNIT: "µM"
  IC50: 1.1
- MOLECULE: "CC(C)(C)OC(=O)N1CCc2c(sc3ncnc(Oc4ccc(NC(=O)C5(C(=O)Nc6ccc(F)cc6)CC5)cc4F)c23)C1 [Compound 13h]"
  RESULT_UNIT: "µM"
  IC50: 2.8
- MOLECULE: "CNC(=O)c1cc(Oc2cccc(C(=O)Nc3ccc(Cl)cc3)c2)ccn1 [Compound 11e]"
  RESULT_UNIT: "µM"
  IC50: 34.5
- MOLECULE: "CNC(=O)c1cc(Oc2cccc(C(=O)Nc3ccc(F)cc3)c2)ccn1 [Compound 11f]"
  RESULT_UNIT: "µM"
  IC50: 42.1
- MOLECULE: "COc1cc2ncnc(Oc3ccc(NC(=O)C(C)(C)C(=O)Nc4ccc(F)cc4)cc3F)c2cc1OC [Compound 13a]"
  RESULT_UNIT: "µM"
  IC50: 71.8

Here are 8 molecules. What values of IC50 were reported for them?
1. COc1cc2ncnc(Oc3cccc(C(=O)Nc4ccc(F)cc4)c3)c2cc1OC [Compound 11c]
2. CC(C)(C)OC(=O)N1CCc2c(sc3ncnc(Oc4ccc(NC(=O)C5(C(=O)Nc6ccc(F)cc6)CCC5)cc4F)c23)C1 [Compound 13i]
3. COc1ccc(NC(=O)c2cccc(Oc3ncnc4cc(OC)c(OC)cc34)c2)cc1OC [Compound 11a]
4. COc1ccc(NC(=O)c2cccc(Oc3ncnc4sc5c(c34)CCN(C(=O)OC(C)(C)C)C5)c2)cc1OC [Compound 11g]
5. COc1cc2ncnc(Oc3cccc(C(=O)Nc4cc(C(C)(C)C)nn4-c4ccccc4)c3)c2cc1OC [Compound 9a]
6. CC(C)(C)OC(=O)N1CCc2c(sc3ncnc(Oc4cccc(C(=O)Nc5cc(C(C)(C)C)nn5-c5ccccc5)c4)c23)C1 [Compound 9c]
7. CNC(=O)c1cc(Oc2ccc(NC(=O)C(C)(C)C(=O)Nc3ccc(F)cc3)cc2)ccn1 [Compound 13d]
8. COc1cc2ncnc(Oc3cccc(C(=O)Nc4ccc(Cl)cc4)c3)c2cc1OC [Compound 11b]

1. 5.2
2. 21.7
3. 3.4
4. 17.3
5. 46.1
6. 66.7
7. 91.2
8. 7.8

Here are 5 molecules. What values of IC50 were reported for them?
1. CC(C)(C)OC(=O)N1CCc2c(sc3ncnc(Oc4cccc(C(=O)Nc5ccc(Cl)cc5)c4)c23)C1 [Compound 11h]
2. CNC(=O)c1cc(Oc2cccc(C(=O)Nc3cc(C(C)(C)C)nn3-c3ccccc3)c2)ccn1 [Compound 9b]
3. COc1cc2ncnc(Oc3ccc(NC(=O)C4(C(=O)Nc5ccc(F)cc5)CC4)cc3F)c2cc1OC [Compound 13b]
4. CNC(=O)c1cc(Oc2cccc(C(=O)Nc3ccc(OC)c(OC)c3)c2)ccn1 [Compound 11d]
5. CC(C)(C)OC(=O)N1CCc2c(sc3ncnc(Oc4ccc(NC(=O)C(C)(C)C(=O)Nc5ccc(F)cc5)cc4F)c23)C1 [Compound 13g]

[22.9, 59.7, 1.2, 71.2, 27.7]

* * *

Test system: Hep-G2 (human liver cancer)
Experiment: Cell proliferative assay (MTT), Hep-G2
Assay type: cell-based
Settings: Homo sapiens, HepG2, Hep-G2 cells, read-out: Proliferative Inhibition (IC50, µM) Hep-G2
METRIC: IC50

Consider the reported IC50 for these compounds:
- COMPOUND: "CNC(=O)c1cc(Oc2cccc(C(=O)Nc3ccc(OC)c(OC)c3)c2)ccn1 [Compound 11d]"
  ASSAY_TARGET: "Hep-G2 (human liver cancer)"
  IC50: "> 100 µM"
- COMPOUND: "COc1cc2ncnc(Oc3cccc(C(=O)Nc4ccc(F)cc4)c3)c2cc1OC [Compound 11c]"
  ASSAY_TARGET: "Hep-G2 (human liver cancer)"
  IC50: "10.1 µM"
- COMPOUND: "CC(C)(C)OC(=O)N1CCc2c(sc3ncnc(Oc4ccc(NC(=O)C(C)(C)C(=O)Nc5ccc(F)cc5)cc4F)c23)C1 [Compound 13g]"
  ASSAY_TARGET: "Hep-G2 (human liver cancer)"
  IC50: "> 100 µM"
- COMPOUND: "CC(C)(C)OC(=O)N1CCc2c(sc3ncnc(Oc4cccc(C(=O)Nc5cc(C(C)(C)C)nn5-c5ccccc5)c4)c23)C1"
  ASSAY_TARGET: "Hep-G2 (human liver cancer)"
  IC50: "> 100 µM"
- COMPOUND: "COc1cc2ncnc(Oc3ccc(NC(=O)C4(C(=O)Nc5ccc(F)cc5)CC4)cc3F)c2cc1OC [Compound 13b]"
  ASSAY_TARGET: "Hep-G2 (human liver cancer)"
  IC50: "12.8 µM"
- COMPOUND: "CC(C)(C)OC(=O)N1CCc2c(sc3ncnc(Oc4cccc(C(=O)Nc5ccc(Cl)cc5)c4)c23)C1 [Compound 11h]"
  ASSAY_TARGET: "Hep-G2 (human liver cancer)"
  IC50: "61.9 µM"

--- query ---
Please tell me: IC50 of COc1ccc(NC(=O)c2cccc(Oc3ncnc4cc(OC)c(OC)cc34)c2)cc1OC [Compound 11a] , system Hep-G2 (human liver cancer)?
> 100 µM

* * *

Biological target: c-MET (Homo sapiens, UniProt P08581)
Construct: purchased Cell Signaling Technology, Inc
Sequence (P08581 25-1390): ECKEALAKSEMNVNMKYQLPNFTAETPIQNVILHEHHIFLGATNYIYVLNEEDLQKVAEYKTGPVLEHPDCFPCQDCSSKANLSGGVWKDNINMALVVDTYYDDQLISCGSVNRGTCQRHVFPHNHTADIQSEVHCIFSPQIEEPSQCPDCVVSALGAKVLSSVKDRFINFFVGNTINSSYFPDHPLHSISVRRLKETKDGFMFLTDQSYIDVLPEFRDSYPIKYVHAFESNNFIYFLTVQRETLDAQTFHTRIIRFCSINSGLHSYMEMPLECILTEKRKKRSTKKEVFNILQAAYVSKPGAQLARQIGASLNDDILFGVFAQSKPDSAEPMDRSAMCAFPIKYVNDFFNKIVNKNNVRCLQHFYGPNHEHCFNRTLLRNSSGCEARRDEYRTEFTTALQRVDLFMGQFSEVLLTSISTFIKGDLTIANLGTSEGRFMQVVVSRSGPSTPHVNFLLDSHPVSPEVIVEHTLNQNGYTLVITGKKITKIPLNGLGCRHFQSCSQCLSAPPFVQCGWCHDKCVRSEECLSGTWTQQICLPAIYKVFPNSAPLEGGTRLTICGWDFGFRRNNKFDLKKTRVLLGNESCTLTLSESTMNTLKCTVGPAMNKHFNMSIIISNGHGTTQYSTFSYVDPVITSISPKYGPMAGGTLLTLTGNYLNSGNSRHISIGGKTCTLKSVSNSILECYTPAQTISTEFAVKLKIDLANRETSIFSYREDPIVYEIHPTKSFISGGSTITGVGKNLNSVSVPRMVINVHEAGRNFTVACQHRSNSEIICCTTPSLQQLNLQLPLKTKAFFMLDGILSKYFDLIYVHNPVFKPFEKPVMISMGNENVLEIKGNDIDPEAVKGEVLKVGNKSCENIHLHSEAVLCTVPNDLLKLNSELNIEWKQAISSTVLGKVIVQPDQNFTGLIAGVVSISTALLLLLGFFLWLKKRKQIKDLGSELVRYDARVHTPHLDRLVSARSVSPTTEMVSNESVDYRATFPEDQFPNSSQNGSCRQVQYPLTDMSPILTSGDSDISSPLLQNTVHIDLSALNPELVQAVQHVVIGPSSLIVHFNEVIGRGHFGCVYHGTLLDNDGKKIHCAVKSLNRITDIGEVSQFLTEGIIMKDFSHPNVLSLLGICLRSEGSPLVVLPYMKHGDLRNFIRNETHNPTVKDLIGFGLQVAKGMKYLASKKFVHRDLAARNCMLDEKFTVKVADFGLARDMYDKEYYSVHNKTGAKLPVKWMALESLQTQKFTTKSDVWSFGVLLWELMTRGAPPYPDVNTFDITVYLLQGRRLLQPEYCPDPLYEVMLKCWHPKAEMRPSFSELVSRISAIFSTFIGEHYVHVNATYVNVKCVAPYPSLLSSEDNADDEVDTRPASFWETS
Assay: In vitro kinase assay (HTScan MET Kinase Assay Kit, colorimetric ELISA)
Assay type: biochemical
Settings: ATP 10 µM; three independent determinations; read-out: Enzymatic Inhibition (IC50, µM) c-MET
METRIC: IC50 (µM)
Give bare numbers, in µM.

- COMPOUND: "COc1cc2ncnc(Oc3ccc(NC(=O)C4(C(=O)Nc5ccc(F)cc5)CC4)cc3F)c2cc1OC [Compound 13b]"
  METRIC: "IC50"
  RESULT_UNIT: "µM"
  READOUT_VALUE: 0.02
- COMPOUND: "CC(C)(C)OC(=O)N1CCc2c(sc3ncnc(Oc4ccc(NC(=O)C(C)(C)C(=O)Nc5ccc(F)cc5)cc4F)c23)C1 [Compound 13g]"
  METRIC: "IC50"
  RESULT_UNIT: "µM"
  READOUT_VALUE: 9.4
- COMPOUND: "COc1cc2ncnc(Oc3ccc(NC(=O)C4(C(=O)Nc5ccc(F)cc5)CCC4)cc3F)c2cc1OC [Compound 13c]"
  METRIC: "IC50"
  RESULT_UNIT: "µM"
  READOUT_VALUE: 1.2
- COMPOUND: "COc1cc2ncnc(Oc3ccc(NC(=O)C(C)(C)C(=O)Nc4ccc(F)cc4)cc3F)c2cc1OC [Compound 13a]"
  METRIC: "IC50"
  RESULT_UNIT: "µM"
  READOUT_VALUE: 7.1
- COMPOUND: "CC(C)(C)OC(=O)N1CCc2c(sc3ncnc(Oc4cccc(C(=O)Nc5ccc(F)cc5)c4)c23)C1 [Compound 11i]"
  METRIC: "IC50"
  RESULT_UNIT: "µM"
  READOUT_VALUE: 0.05
- COMPOUND: "CC(C)(C)OC(=O)N1CCc2c(sc3ncnc(Oc4ccc(NC(=O)C5(C(=O)Nc6ccc(F)cc6)CCC5)cc4F)c23)C1 [Compound 13i]"
  METRIC: "IC50"
  RESULT_UNIT: "µM"
  READOUT_VALUE: 0.25

Here are 5 compounds. What values of IC50 were reported for them?
1. COc1cc2ncnc(Oc3cccc(C(=O)Nc4cc(C(C)(C)C)nn4-c4ccccc4)c3)c2cc1OC
2. COc1ccc(NC(=O)c2cccc(Oc3ncnc4sc5c(c34)CCN(C(=O)OC(C)(C)C)C5)c2)cc1OC [Compound 11g]
3. CNC(=O)c1cc(Oc2cccc(C(=O)Nc3ccc(F)cc3)c2)ccn1 [Compound 11f]
4. COc1cc2ncnc(Oc3cccc(C(=O)Nc4ccc(Cl)cc4)c3)c2cc1OC [Compound 11b]
5. CC(C)(C)OC(=O)N1CCc2c(sc3ncnc(Oc4cccc(C(=O)Nc5ccc(Cl)cc5)c4)c23)C1 [Compound 11h]

1: 8.4; 2: 1.4; 3: 5.3; 4: 0.12; 5: 0.25

Here are 2 compounds. What values of IC50 were reported for them?
1. CNC(=O)c1cc(Oc2cccc(C(=O)Nc3ccc(Cl)cc3)c2)ccn1 [Compound 11e]
2. COc1ccc(NC(=O)c2cccc(Oc3ncnc4cc(OC)c(OC)cc34)c2)cc1OC [Compound 11a]

[7.4, 0.52]

Here are 2 compounds. What values of IC50 were reported for them?
1. COc1cc2ncnc(Oc3cccc(C(=O)Nc4ccc(F)cc4)c3)c2cc1OC [Compound 11c]
2. CC(C)(C)OC(=O)N1CCc2c(sc3ncnc(Oc4ccc(NC(=O)C5(C(=O)Nc6ccc(F)cc6)CC5)cc4F)c23)C1 [Compound 13h]

1: 0.08; 2: 0.05
